Give melting point for every item shown.

So what does the record say about melting point for CCCc1cn(C)cc(-c2cccc(C(F)(F)F)c2)c1=S ? 145 to 148 °C

So what does the record say about melting point for Cc1ccc(NC(=S)N2CCC(O)C2)c(C)c1 (stereo not given) ? 164 to 166 °C

So what does the record say about melting point for CC(C)NC(=O)c1cccc(-c2ccnc3c(C(=O)c4cccs4)cnn23)c1 ? 218 to 220 °C

So what does the record say about melting point for Cc1ccc(C(=O)c2cc(-c3ccncc3)c(N3CCOCC3)s2)cc1 ? 144 to 145 °C

So what does the record say about melting point for O=C(Nc1ccccc1C(=O)c1ccc(OC(F)(F)F)cc1)c1ccncc1 ? 112 to 114 °C

---

READOUT_TYPE: melting point

So what does the record say about melting point for CC1CC(N)=NN1c1nc2ccccc2s1 (stereo not drawn) ? 212 to 215 °C

So what does the record say about melting point for Cc1cccc(NC(=O)c2ccc(C(=O)N3Cc4cccn4Cc4ccccc43)cc2)c1C ? 239 to 240 °C

So what does the record say about melting point for COCc1c(C(=O)OC(CO)CO)ncc2[nH]c3ccc(OCc4ccccc4)cc3c12 ? 190 to 192 °C

---

READOUT_TYPE: melting point

So what does the record say about melting point for CSc1ncncc1C1c2c(F)cccc2CC1(C)C (stereo unspecified) ? 81 to 82 °C

So what does the record say about melting point for CCOC(=O)C(=O)Nc1nc(C)cs1 ? 171 to 173 °C

So what does the record say about melting point for CC(C)(C)C(=O)OCc1cc2c(cc1C#Cc1ccccc1)NC(=O)CC(c1cccc(C#N)c1)=N2 ? 218 °C

So what does the record say about melting point for N#CC1=C(Cl)CN(COC(=O)CNC(=O)CNC(=O)c2ccccc2)C1(c1ccc(Cl)cc1)C(F)(F)F (stereo unspecified) ? 65 to 67 °C

So what does the record say about melting point for COC(=O)c1cccc2c1ccn2Cc1ccc(OCc2ccc3ccccc3n2)cc1 ? 128 to 131 °C

So what does the record say about melting point for OCC(CCc1ccc(Cl)cc1)Cn1cncn1 (stereo unspecified) ? 40 to 45 °C

So what does the record say about melting point for COc1cc(C)c(C(=O)c2c(OC)cnc(Br)c2Cl)c(OC)c1OC ? 97 to 99 °C

So what does the record say about melting point for COC(=O)C1CN(C(=O)COc2ccccc2)c2ccccc2CN1S(=O)(=O)c1ccc(OC)cc1 (stereo unspecified) ? 151 to 153 °C

So what does the record say about melting point for CN(C)C(=O)COc1ccc2ccc(N)nc2n1 ? 182 °C

So what does the record say about melting point for Cc1c(Cl)ccc(OC(C)C(=O)O)c1Cl (stereo unspecified) ? 150 °C

So what does the record say about melting point for O=C1CN(c2ccccc2)C(=S)N1Cc1ccccc1 ? 103 °C

So what does the record say about melting point for O=C=NCCC(F)(F)C(F)(F)C(F)(F)C(F)(F)C(F)(F)C(F)(F)C(F)(F)C(F)(F)C(F)(F)C(F)(F)F ? 70 to 71 °C

So what does the record say about melting point for O=C(O)c1cc(OCc2ccccc2)cc(C(F)(F)F)c1 ? 143 to 145 °C

So what does the record say about melting point for CN1CCN(c2cccc3c2C[C@H](NC(=O)c2ccc(C(F)(F)F)cc2C(F)(F)F)CO3)CC1 ? 202 to 203 °C

So what does the record say about melting point for COc1cc(OC)nc(Oc2cccc(C(F)(F)F)c2C(=O)O)n1 ? 151 to 153 °C

So what does the record say about melting point for Nc1n[nH]cc1C(=O)c1ccco1 ? 153 to 155 °C

---

READOUT_TYPE: melting point

So what does the record say about melting point for CCOC=CC(=O)Nc1ccc(-n2cnc(C)c2)cc1 ? 214 to 216 °C

So what does the record say about melting point for Cc1oc(-c2ccccc2)nc1Cc1cc2cc(Br)ccc2o1 ? 98 to 100 °C

So what does the record say about melting point for CS(=O)(=O)Oc1ccc2c(c1)[nH]c(=O)c1c3ccc(OS(C)(=O)=O)cc3oc21 ? > 300 °C

So what does the record say about melting point for CC1(CN2CCC(Cc3ccc(F)cc3)CC2)CC(c2ccc3[nH]c(=O)oc3c2)=NO1 (stereo not drawn) ? 82 to 86 °C

So what does the record say about melting point for Cc1c(C(F)(F)C(F)(F)C(F)(F)F)ncn1-c1ncc(C(F)(F)F)cc1Cl ? 62.5 °C

So what does the record say about melting point for COc1cc(C=O)cc(C#N)c1O ? 180 °C

So what does the record say about melting point for CCNC(=N)NC(=O)Cc1ccc(Cl)cc1 ? 146 to 147 °C

So what does the record say about melting point for CCOC(=O)c1ccc(-c2nn(Cc3ccccc3)c3ccccc23)cc1 ? 95 to 96 °C

---

Give melting point for every item shown.

So what does the record say about melting point for OCc1cc(-c2ccc(Cl)cc2)nc2ccnn12 ? 185 to 186 °C

So what does the record say about melting point for CC(=O)Oc1cc(C)ccc1C1CCN(CCCCNC(=O)c2ccc(-c3ccc(C#N)cc3)cc2)CC1 ? 128 to 130 °C

So what does the record say about melting point for O=C(O)Cc1oc2ccc(Cl)cc2c1-c1ccccc1 ? 194 to 195 °C

So what does the record say about melting point for COc1ccc2c(c1OC)OC(C)(C)CC2=O ? 75 to 76 °C

So what does the record say about melting point for C=CCNC(=O)c1ccc(-n2c(C)ccc2C)cc1Br ? 136 to 138 °C

---

READOUT_TYPE: melting point (°C)
The response must be a number in °C with no trailing unit.

So what does the record say about melting point for O=C(NO)C1(S(=O)(=O)c2ccc(OCC#CCN3CCOCC3)cc2)CCN(Cc2ccc(Br)cc2)CC1 ? 94

So what does the record say about melting point for c1ccc2c(c1)CSO2 ? 87

So what does the record say about melting point for Cc1cc(Nc2nc(Cl)nc(Nc3cc(C)c(O)c(C(C)(C)C)c3)n2)cc(C(C)(C)C)c1O ? 214

So what does the record say about melting point for Cc1ccc(C=Cc2ccccc2)cc1C ? 76

So what does the record say about melting point for N=C(N)Nc1nc(C(=O)NCC(=O)NC(CC(=O)O)c2cccnc2)cs1 (racemic) ? 186

---

READOUT_TYPE: melting point

So what does the record say about melting point for O=C(O)CCCCCCCCCCOc1ccccc1 ? 76 to 78 °C

So what does the record say about melting point for CC(C)(C)OC(=O)N1CCN(C(=O)OC[C@@]2(C)Cn3cc([N+](=O)[O-])nc3O2)CC1 ? 211 to 212 °C

So what does the record say about melting point for COc1ccc(CCN2C=CC=C3C2=Nc2cc(C)ccc2S(=O)(=O)N3C)cc1 ? 128 °C

So what does the record say about melting point for O=C1c2ccc(Cl)cc2C(=O)N1c1ccc([N+](=O)[O-])cc1CI ? 183 to 187 °C

So what does the record say about melting point for COc1cc(Oc2ccc(S(C)(=O)=O)nc2)cc2cc(C3=NCC(CC(=O)N4CCOCC4)S3)[nH]c12 (stereo not drawn) ? 148 to 149 °C

So what does the record say about melting point for CC(=O)N1CCN(c2nccc(Oc3ccc(NC(=O)c4cc(F)cc(N5CCCCC5)c4)c4ccccc34)n2)CC1 ? 102 to 104 °C

So what does the record say about melting point for Cc1cccc(C(Oc2ccc3oc(CCCO)cc3c2)c2cocn2)c1 (stereo not drawn) ? 101 to 102 °C

So what does the record say about melting point for COC(=O)c1ccnc(-c2cccc3cc(Cc4cc(F)cc(Cl)c4)sc23)c1 ? 102 to 103 °C

So what does the record say about melting point for CCCC(=O)Nc1nc(CN2CCN(C(c3ccccc3)c3ccccc3)CC2)cs1 ? 128 to 135 °C

So what does the record say about melting point for CCOC(=O)c1sc(Oc2ccc(-n3cccc3)cc2)c2c1CCc1cnn(C)c1-2 ? 139 to 140 °C

So what does the record say about melting point for CCOC(=O)c1cc(=O)c2c(OCC(O)COc3ccc(C(C)(C)C)cc3)cccc2o1 (stereo not drawn) ? 99 to 102 °C

So what does the record say about melting point for COc1ccc(C2C(C(=O)/C=C/c3ccc(O)c(OC)c3)C(=O)CC(c3ccc(O)c(OC)c3)C2[N+](=O)[O-])cc1 (stereo not drawn) ? 83 to 85 °C

So what does the record say about melting point for CCCCN(Cc1ccc(-c2ccccc2-c2nnn[nH]2)cc1)c1ncncc1C(=O)OCC ? 109 to 111 °C

---

Give melting point for every item shown.

So what does the record say about melting point for CCN(CC)c1ccc(-c2cc3ccccc3o2)cc1 ? 117 to 119 °C

So what does the record say about melting point for CN(CCO)c1ccc([N+](=O)[O-])cn1 ? 83 to 84 °C

So what does the record say about melting point for OCc1nc2cccnc2n1Cc1ccc(-c2ccccc2)cc1 ? 163 to 165 °C

So what does the record say about melting point for CCCC(=O)Oc1cc(C(C)C)ccc1C1(OC(=O)CCC)C(=O)c2ccccc2C1=O ? 98 to 102 °C

So what does the record say about melting point for O=C1CNC(=O)C(=Cc2cc3ccccc3s2)N1 ? 258 °C
